Source of measurements: ChEMBL document CHEMBL4834490

Record form. Attribute: IC50. Fill in for each entry.
Target: Bromodomain-containing protein 4 (Homo sapiens, UniProt O60885)
Assay: Inhibition of binding of N-terminal His-tagged human full length recombinant BRD4 (2 to 1362 residues) expressed in baculovirus-infected Sf9 cells with acetylated histone H4 peptide (1 to 21) preincubated for 30 mins followed by H4 ligand addition and measured after 30 mins AlphaScreen assay

Illustrative cases are given below, each with its answer.
Cn1cc(-c2ccc3nc(-c4cnn(CC(C)(C)O)c4)nc(N4CCOC[C@@H]4c4ccc(F)cc4)c3c2)c2cc[nH]c2c1=O
< 100 nM
Cn1cc(-c2ccc3nc(-c4cnn(CC(C)(C)O)c4)nc(N4CCOC[C@@H]4c4ccccc4)c3c2)c2cc[nH]c2c1=O
< 100 nM
Cc1cc(-c2ccc3nc(-c4cnn(CC(C)(C)O)c4)nc(N4CCOC[C@@H]4c4ccc(F)cc4)c3c2)cn(C)c1=O
< 100 nM

// each listed molecule needs a value for IC50
1. Cc1cc(-c2ccc3nc(-c4cnn(CC(C)(C)O)c4)nc(N4CCOC[C@@H]4C4CC4)c3c2)cn(C)c1=O
2. Cc1cc(-c2ccc3nc(-c4cnn(CC(C)(C)O)c4)nc(N4CCOC[C@@H]4c4ccccc4)c3c2)cn(C)c1=O
3. Cn1cc(-c2ccc3nc(-c4cnn(CC(C)(C)O)c4)nc(N4CCOC[C@@H]4C4CC4)c3c2)c2cc[nH]c2c1=O

1: 100 nM; 2: < 100 nM; 3: < 100 nM
